TARGET DESC: human C5aR(CD88) (Homo sapiens)
Construct: expressed in transfected cells; host or cells: rat basophilic leukemia cells (RBL)
Sequence (P21730 whole entry): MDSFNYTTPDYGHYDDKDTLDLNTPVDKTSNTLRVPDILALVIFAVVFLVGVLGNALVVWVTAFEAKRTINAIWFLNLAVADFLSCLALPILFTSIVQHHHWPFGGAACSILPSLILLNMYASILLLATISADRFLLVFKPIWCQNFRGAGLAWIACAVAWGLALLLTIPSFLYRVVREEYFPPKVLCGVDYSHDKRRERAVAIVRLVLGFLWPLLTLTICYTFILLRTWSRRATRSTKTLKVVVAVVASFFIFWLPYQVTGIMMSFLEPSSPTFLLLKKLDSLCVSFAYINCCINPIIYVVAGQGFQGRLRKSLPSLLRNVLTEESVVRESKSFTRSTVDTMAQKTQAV
PROTOCOL DETAILS: Determination of the IC50 value in an enzyme release assay (functional assay, antagonistic activity)
Type: cell-based
SETUP CONDITIONS: antagonistic activity; IC50 group in enzyme release assay, RBL cells expressing human C5aR(CD88); read-out: activity (group)
pIC50: −log10 of the molar value. Starred links: 1 amine or outer side, 2 acyl side, 3 side chain; linkers in the order of their positions; H or OH if unused. Positions of bridges follow the written chain, without caps; N, C: chain ends. Non-standard residues stand in square brackets, D forms with d. Residues, ends and D or L forms follow the SMILES beside them. ξ: configuration not given here. *: point of attachment. ξTrp(6-F) = NC(Cc1c[nH]c2cc(F)ccc12)C(=O)O; X3 = O=C([C@H](CCNC1=NCCN1)N[*:1])[*:2]; Bta = N[C@@H](Cc1csc2ccccc12)C(=O)O; Hyp = O=C(O)[C@@H]1C[C@@H](O)CN1; d(hLeu) = CC(C)CC[C@@H](N)C(=O)O; dCha = N[C@H](CC1CCCCC1)C(=O)O; Pip = O=C(O)[C@@H]1CCCCN1; Nle = CCCC[C@H](N)C(=O)O; Orn = NCCC[C@H](N)C(=O)O; Aze = O=C(O)[C@@H]1CCN1; X16 = c1ccc(C*)nc1; Ms = CS(=O)(=O)*; tBu = CC(C)(C)*

COMPOUND	TARGET DESC	pIC50
CC(=O)N[C@@H](Cc1ccccc1)C(=O)N[C@@H](CCCN)C(=O)N1CCC[C@H]1C(=O)N[C@H](CCC(C)C)C(=O)NC(Cc1c[nH]c2cc(F)ccc12)C(=O)N[C@@H](Cc1ccccc1)C(N)=O (stereo partly drawn) [Compound 269, Ac-Phe-Orn-Pro-hle-6FW-Phe-NH2] (Ac-F[Orn]P[d(hLeu)][ξTrp(6-F)]F-NH2)	human C5aR(CD88) (Homo sapiens)	6.70 to 7.30
CC(=O)N[C@@H](Cc1ccccc1)C(=O)N[C@@H](CCCN)C(=O)N1CCCC[C@H]1C(=O)N[C@H](CC1CCCCC1)C(=O)N[C@@H](Cc1c[nH]c2ccccc12)C(=O)N[C@@H](Cc1ccccc1)C(N)=O [Compound 92, Ac-Phe-Orn-Pip-cha-Trp-Phe-NH2] (Ac-F[Orn][Pip][dCha]WF-NH2)	human C5aR(CD88) (Homo sapiens)	6.70 to 7.30
CC(=O)N[C@@H](Cc1ccccc1)C(=O)N[C@@H](CCCNS(C)(=O)=O)C(=O)N1CCC[C@H]1C(=O)N[C@H](CC1CCCCC1)C(=O)N[C@@H](Cc1csc2ccccc12)C(=O)N[C@@H](Cc1ccccc1)C(N)=O [Compound 227, Ac-Phe-G23-Pro-cha-Bta-Phe-NH2] (Ac-F[Orn](Ms)P[dCha][Bta]F-NH2)	human C5aR(CD88) (Homo sapiens)	6.70 to 7.30
CC(=O)N[C@@H](Cc1ccccc1)C(=O)N[C@H]1CCCNC(=O)[C@H](CSCc2ccccn2)NC(=O)[C@H](Cc2c[nH]c3ccccc23)NC(=O)[C@@H](CC2CCCCC2)NC(=O)[C@@H]2CCCN2C1=O [compound 18] (Ac-F[Orn]P[dCha]WC(X16); lactam 2-C)	human C5aR(CD88) (Homo sapiens)	5.70 to 6.70
CC(=O)N[C@@H](Cc1ccccc1)C(=O)N[C@@H](CCNC1=NCCN1)C(=O)N1CC[C@H]1C(=O)N[C@H](CC1CCCCC1)C(=O)N[C@@H](Cc1csc2ccccc12)C(=O)N[C@@H](Cc1ccccc1)C(N)=O [Compound 219, Ac-Phe-Fcn-Aze-cha-Bta-Phe-NH2] (Ac-F[X3][Aze][dCha][Bta]F-NH2)	human C5aR(CD88) (Homo sapiens)	7.70 to 8.00
CCCC[C@@H]1NC(=O)[C@H](Cc2c[nH]c3ccccc23)NC(=O)[C@@H](CSC(C)(C)C)NC(=O)[C@@H]2C[C@@H](O)CN2C(=O)[C@@H](NC(=O)[C@@H](N)Cc2ccccc2)CCCNC1=O [Compound 359, H-Phe-[Orn-Hyp-ctb-Trp-Nle]] (H-F[Orn][Hyp][dC](tBu)W[Nle]; lactam 2-C)	human C5aR(CD88) (Homo sapiens)	7.30 to 7.70
CC(=O)N[C@@H](CCCCN)C(=O)N[C@@H](Cc1ccccc1)C(=O)N[C@@H](CCCN)C(=O)N1CC[C@H]1C(=O)N[C@H](CC1CCCCC1)C(=O)N[C@@H](Cc1csc2ccccc12)C(=O)N[C@@H](Cc1ccccc1)C(N)=O [Compound 135, Ac-Lys-Phe-Orn-Aze-cha-Bta-Phe-NH2] (Ac-KF[Orn][Aze][dCha][Bta]F-NH2)	human C5aR(CD88) (Homo sapiens)	7.70 to 8.00
